target desc: Fuc(a1-2)[GalNAc(a1-4)]Gal(b1-4)GlcNAc
assay method text: glycan array binding signal (z-score within array); higher = stronger binding
assay conditions: glycan notation: IUPAC condensed, linker removed
This excerpt belongs to a sample that is enriched for the strongest signals.
# glycan array binding signal (z-score) annotations
quantity name: glycan array binding signal (z-score)

[
  {
    "binder": "SAG3 (Toxoplasma gondii), Q9BJ39 (protein) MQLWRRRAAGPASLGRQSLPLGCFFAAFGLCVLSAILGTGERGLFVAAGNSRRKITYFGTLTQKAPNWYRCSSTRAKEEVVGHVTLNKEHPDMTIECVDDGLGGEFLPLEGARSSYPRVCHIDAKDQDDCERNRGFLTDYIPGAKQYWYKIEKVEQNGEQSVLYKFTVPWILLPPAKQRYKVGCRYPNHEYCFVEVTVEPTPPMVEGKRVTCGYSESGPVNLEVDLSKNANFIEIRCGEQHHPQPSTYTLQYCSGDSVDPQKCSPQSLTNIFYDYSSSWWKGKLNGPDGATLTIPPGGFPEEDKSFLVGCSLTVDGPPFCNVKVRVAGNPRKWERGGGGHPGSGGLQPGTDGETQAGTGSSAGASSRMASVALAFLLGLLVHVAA",
    "quantity name": "glycan array binding signal (z-score)",
    "measured": -0.046
  },
  {
    "binder": "Als3-2 (Candida albicans) (protein) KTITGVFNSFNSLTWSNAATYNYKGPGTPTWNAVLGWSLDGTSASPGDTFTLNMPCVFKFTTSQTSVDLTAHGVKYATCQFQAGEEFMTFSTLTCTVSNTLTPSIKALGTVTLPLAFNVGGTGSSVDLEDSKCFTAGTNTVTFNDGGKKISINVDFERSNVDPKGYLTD",
    "quantity name": "glycan array binding signal (z-score)",
    "measured": -0.444
  },
  {
    "binder": "FimA-N2 (Actinomyces oris) (protein) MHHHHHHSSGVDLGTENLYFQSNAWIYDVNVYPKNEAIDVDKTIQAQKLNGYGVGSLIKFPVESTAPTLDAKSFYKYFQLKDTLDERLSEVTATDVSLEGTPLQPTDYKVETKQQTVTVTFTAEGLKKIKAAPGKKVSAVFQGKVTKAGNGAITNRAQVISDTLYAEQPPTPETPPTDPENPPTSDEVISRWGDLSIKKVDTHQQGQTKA",
    "quantity name": "glycan array binding signal (z-score)",
    "measured": 0.482
  },
  {
    "binder": "GH98CBM (Clostridium perfringens) (protein) EVYALEESRDVYLSDLDWLNATHGDDTKSKIVQKNHPFTPGNNNQSTKISLKMEDGSISEFEKGLGTIAGSPSTITYDISGAGVTKFFSYLGIDRSANPINEQYAKVDKIEVVVDGKVIYSTINQFPNGLTYETPAIKVDLNIPENAKRLQLKSYAGEKTWGDEVVYADAKFTAKGDFVN",
    "quantity name": "glycan array binding signal (z-score)",
    "measured": -0.209
  },
  {
    "binder": "LecB PA7 (Pseudomonas aeruginosa) (protein) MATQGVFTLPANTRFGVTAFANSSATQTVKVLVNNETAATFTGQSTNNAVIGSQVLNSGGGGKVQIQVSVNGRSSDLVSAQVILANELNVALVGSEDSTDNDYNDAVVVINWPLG",
    "quantity name": "glycan array binding signal (z-score)",
    "measured": 1.57
  },
  {
    "binder": "Epa1 (Candida glabrata) (protein) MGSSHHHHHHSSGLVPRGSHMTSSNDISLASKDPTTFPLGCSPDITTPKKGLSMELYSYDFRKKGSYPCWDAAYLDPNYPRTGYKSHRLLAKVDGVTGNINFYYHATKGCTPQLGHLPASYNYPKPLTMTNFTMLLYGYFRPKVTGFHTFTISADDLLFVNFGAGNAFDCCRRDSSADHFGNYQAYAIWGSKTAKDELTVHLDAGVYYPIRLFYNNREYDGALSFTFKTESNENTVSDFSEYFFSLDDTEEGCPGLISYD",
    "quantity name": "glycan array binding signal (z-score)",
    "measured": -0.299
  },
  {
    "binder": "CIH1 (Colletotrichum higginsianum) (protein) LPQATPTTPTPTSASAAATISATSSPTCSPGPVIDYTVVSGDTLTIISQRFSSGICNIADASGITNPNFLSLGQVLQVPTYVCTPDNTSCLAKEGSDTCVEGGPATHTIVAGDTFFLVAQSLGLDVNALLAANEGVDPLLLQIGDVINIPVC",
    "quantity name": "glycan array binding signal (z-score)",
    "measured": -0.071
  }
]
